Form field: kon (one value per entry).
molecular target: C52Hk S. African variant (Acro) spike protein (SARS-CoV-2, UniProt P0DTC2 16-1213); test: SPR (Carterra LSA); […]; 1:1 model; […]
Give just the numeric value; M⁻¹ s⁻¹ need not be written.

[
  {
    "BINDER": "Antibody 1-7 (Fc fusion) EVQLVESGGGLVQPGGSLRLSCAASGGTFSSIGMGWFRQAPGKEREFVAAISWDGGATAYADSVKGRFTISADNSKNTVYLQMNSLKPEDTAVYYCAKEDVGKPFDWGQGTLVTVSS",
    "kon (M⁻¹ s⁻¹)": 360000
  }
]

Alright, here's another binder for you.
GET /values?readout=kon&item= Antibody 1-8 (Fc fusion) EVQLVESGGGLVQPGGSLRLSCAASGRTLSRYTMGWFRQAPGKEREFVASITSGGTTNYADSVKGRFTISADNSKNTAYLQMNSLKPEDTAVYYCAKEDVGKPFDWGQGTLVTVSS
570000
